Sequence of the target: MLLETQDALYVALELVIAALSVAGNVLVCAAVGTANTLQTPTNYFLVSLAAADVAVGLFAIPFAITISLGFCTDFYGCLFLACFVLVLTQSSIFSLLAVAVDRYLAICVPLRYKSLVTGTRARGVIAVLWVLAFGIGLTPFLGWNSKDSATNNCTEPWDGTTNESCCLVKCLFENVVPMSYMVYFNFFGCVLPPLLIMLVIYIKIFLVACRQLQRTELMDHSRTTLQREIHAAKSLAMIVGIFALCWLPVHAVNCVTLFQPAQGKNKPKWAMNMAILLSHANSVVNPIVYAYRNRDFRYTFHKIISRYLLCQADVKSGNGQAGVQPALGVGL
Where a name gives a salt, the structure may show the parent alone.
RECORDED_METRIC: Ki
Answer format: number, then unit.

// solved cases for Ki follow
COMPOUND	EXPERIMENTAL_VALUE
Cc1cc(-c2c(-c3cccc(C#N)c3)nn3ccc(NC(=O)NCCN)nc23)cc(Cl)n1 [Example 31.2, trifluoroacetate]	6 nM
Cc1cc(-c2c(-c3cccc(C#N)c3)nn3ccc(NC(=O)CC(C)(C)O)nc23)cc(C)n1	13 nM
Cc1cc(-c2c(-c3cccc(C#N)c3)nn3ccc(O[C@H]4CCNC4)nc23)cc(Cl)n1	25 nM
Cc1cc(-c2c(-c3cccc(C#N)c3)nn3ccc(C(=O)NC45CC(O)(C4)C5)nc23)cc(Cl)n1	9 nM
Cc1cc(-c2c(-c3cccc(C#N)c3)nn3ccc(C(=O)N[C@H](C)CO)nc23)cc(Cl)n1	35 nM
Cc1cc(-c2c(-c3cccc(C#N)c3)nn3ccc(C(=O)NCC4CNCCO4)nc23)cc(Cl)n1 (stereo not shown)	3 nM

Need Ki of CCn1nccc1-c1c(-c2cccc(C#N)c2)nn2ccc(N3CCN(C)C(CO)C3)nc12 (stereo not shown) , thanks.
62 nM

Cool, now CCn1nccc1-c1c(-c2cccc(C#N)c2)nn2ccc(N3CCN(S(C)(=O)=O)CC3)nc12
120 nM

Cool, now Cc1cc(-c2c(-c3cccc(C#N)c3)nn3ccc(NC45CC(C(=O)O)(C4)C5)nc23)cc(Cl)n1
346 nM
